Reference source: patent US8841413B2

Items are presented alongside their recorded % degradation in 24 h when incubated with DPP-IV enzyme.
- measured-on: UniProt P27487
- Sequence (P27487 whole entry, species assumed): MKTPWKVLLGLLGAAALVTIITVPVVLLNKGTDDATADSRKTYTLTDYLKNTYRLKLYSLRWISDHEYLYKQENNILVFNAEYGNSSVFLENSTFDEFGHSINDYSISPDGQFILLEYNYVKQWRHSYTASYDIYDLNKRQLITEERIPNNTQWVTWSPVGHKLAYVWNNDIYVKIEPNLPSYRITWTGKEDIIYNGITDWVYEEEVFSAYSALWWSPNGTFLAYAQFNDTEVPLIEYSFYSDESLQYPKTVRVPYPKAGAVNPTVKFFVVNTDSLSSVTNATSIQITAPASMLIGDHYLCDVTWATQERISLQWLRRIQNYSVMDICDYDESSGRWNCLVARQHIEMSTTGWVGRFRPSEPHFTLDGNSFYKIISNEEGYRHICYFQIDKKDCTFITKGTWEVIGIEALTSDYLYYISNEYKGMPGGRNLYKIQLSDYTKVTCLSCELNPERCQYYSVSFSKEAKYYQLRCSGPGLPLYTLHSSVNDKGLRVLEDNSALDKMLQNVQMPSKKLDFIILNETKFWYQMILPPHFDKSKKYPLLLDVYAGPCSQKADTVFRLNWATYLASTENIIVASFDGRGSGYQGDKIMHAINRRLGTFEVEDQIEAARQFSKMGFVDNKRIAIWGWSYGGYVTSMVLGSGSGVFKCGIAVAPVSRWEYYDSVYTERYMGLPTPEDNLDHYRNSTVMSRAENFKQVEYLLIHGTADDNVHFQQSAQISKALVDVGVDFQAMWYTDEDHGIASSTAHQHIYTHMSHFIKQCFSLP
- protocol: Stability against DPP IV enzyme
- Assay type: in vitro ADME
- measurement-conditions: 2 μM, 37° C., 24 h
Give your result in % as a bare value.

Here is how some compounds turned out for % degradation in 24 h when incubated with DPP-IV enzyme.
CCc1cc(OC)ccc1-c1ccc(CC(NC(=O)[C@H](CC(=O)O)NC(=O)[C@H](CO)NC(=O)[C@@H](NC(=O)C(C)(Cc2ccccc2F)NC(=O)[C@@H](NC(=O)CNC(=O)[C@H](CCC(N)=O)NC(=O)C2(NC(=O)[C@@H](N)Cc3c[nH]cn3)CC2)[C@@H](C)O)[C@@H](C)O)C(=O)NC(Cc2ccc(-c3ccccc3C)cc2)C(N)=O)cc1 (single isomer, unassigned); 00
CCc1cc(OC)ccc1-c1ccc(CC(NC(=O)[C@H](CC(=O)O)NC(=O)[C@H](CO)NC(=O)[C@@H](NC(=O)C(C)(Cc2ccccc2F)NC(=O)[C@@H](NC(=O)CNC(=O)[C@H](CCC(N)=O)NC(=O)[C@H](C)NC(=O)[C@@H](N)Cc2c[nH]cn2)[C@@H](C)O)[C@@H](C)O)C(=O)NC(Cc2ccc(-c3ccccc3C)cc2)C(N)=O)cc1 (single isomer, unassigned); 74

Now for a further compound.
// query Provide only the value of recorded % degradation in 24 h when incubated with DPP-IV enzyme for CCc1cc(OC)ccc1-c1ccc(CC(NC(=O)[C@H](CC(=O)O)NC(=O)[C@H](CO)NC(=O)[C@@H](NC(=O)C(C)(Cc2ccccc2F)NC(=O)[C@@H](NC(=O)CNC(=O)[C@H](CCC(N)=O)NC(=O)C(C)(C)NC(=O)[C@@H](N)Cc2c[nH]cn2)[C@@H](C)O)[C@@H](C)O)C(=O)NC(Cc2ccc(-c3ccccc3C(F)(F)F)cc2)C(N)=O)cc1 (single isomer, unassigned)
// result 00

----------
- protocol: Stability in human plasma
- Assay type: in vitro ADME
- measurement-conditions: 2 μM, 37° C., 24 h
Items are presented alongside their recorded % degradation in 24 h when incubated with human plasma.
Give your result in % as a bare value.

Here is how some molecules turned out for % degradation in 24 h when incubated with human plasma.
CCc1cc(OC)ccc1-c1ccc(CC(NC(=O)[C@H](CC(=O)O)NC(=O)[C@H](CO)NC(=O)[C@@H](NC(=O)[C@H](Cc2ccccc2)NC(=O)[C@@H](NC(=O)CNC(=O)[C@H](CCC(N)=O)NC(=O)C2(NC(=O)[C@@H](N)Cc3c[nH]cn3)CC2)[C@@H](C)O)[C@@H](C)O)C(=O)NC(Cc2ccc(-c3ccccc3C)nc2)C(N)=O)cc1 (single isomer, unassigned) [compound 18]; 00
CCc1cc(OC)ccc1-c1ccc(CC(NC(=O)[C@H](CC(=O)O)NC(=O)[C@H](CO)NC(=O)[C@@H](NC(=O)[C@H](Cc2ccccc2)NC(=O)[C@@H](NC(=O)CNC(=O)[C@H](CCC(N)=O)NC(=O)C2(NC(=O)[C@@H](N)Cc3c[nH]cn3)CC2)[C@@H](C)O)[C@@H](C)O)C(=O)NC(Cc2ccc(-c3ccccc3C(F)(F)F)cc2)C(N)=O)cc1 (single isomer, unassigned) [compound 20]; 00
CCc1cc(OC)ccc1-c1ccc(CC(NC(=O)[C@H](CC(=O)O)NC(=O)[C@H](CO)NC(=O)[C@@H](NC(=O)[C@H](Cc2ccccc2)NC(=O)[C@@H](NC(=O)CNC(=O)[C@H](CCC(N)=O)NC(=O)[C@H](CO)NC(=O)[C@@H](N)Cc2c[nH]cn2)[C@@H](C)O)[C@@H](C)O)C(=O)NC(Cc2ccc(-c3ccccc3C(F)(F)F)cc2)C(N)=O)cc1 (single isomer, unassigned) [compound 8]; 78
CCc1cc(OC)ccc1-c1ccc(CC(NC(=O)[C@H](CC(=O)O)NC(=O)[C@H](CO)NC(=O)[C@@H](NC(=O)C(C)(Cc2ccccc2F)NC(=O)[C@@H](NC(=O)CNC(=O)[C@H](CCC(N)=O)NC(=O)C(C)(C)NC(=O)[C@@H](N)Cc2c[nH]cn2)[C@@H](C)O)[C@@H](C)O)C(=O)NC(Cc2ccc(-c3ccccc3C)nc2)C(N)=O)cc1 (single isomer, unassigned) [compound 30]; 00

// query Provide only the value of recorded % degradation in 24 h when incubated with human plasma for CCc1cc(OC)ccc1-c1ccc(CC(NC(=O)[C@H](CC(=O)O)NC(=O)[C@H](CO)NC(=O)[C@@H](NC(=O)C(C)(Cc2ccccc2F)NC(=O)[C@@H](NC(=O)CNC(=O)[C@H](CCC(N)=O)NC(=O)C2(NC(=O)[C@@H](N)Cc3c[nH]cn3)CC2)[C@@H](C)O)[C@@H](C)O)C(=O)NC(Cc2ccc(-c3ccccc3C(F)(F)F)cc2)C(N)=O)cc1 (single isomer, unassigned) [compound 36]
// result 00

----------
Items are presented alongside their recorded Human GLP-1 R activity (cAMP release), % activity with respect to control.
- measured-on: Human GLP-1 receptor (Homo sapiens)
- Construct: The full-length cDNA was cloned in pcDNA3.1(+); expressed in transfected cells
- Sequence (P43220 24-463): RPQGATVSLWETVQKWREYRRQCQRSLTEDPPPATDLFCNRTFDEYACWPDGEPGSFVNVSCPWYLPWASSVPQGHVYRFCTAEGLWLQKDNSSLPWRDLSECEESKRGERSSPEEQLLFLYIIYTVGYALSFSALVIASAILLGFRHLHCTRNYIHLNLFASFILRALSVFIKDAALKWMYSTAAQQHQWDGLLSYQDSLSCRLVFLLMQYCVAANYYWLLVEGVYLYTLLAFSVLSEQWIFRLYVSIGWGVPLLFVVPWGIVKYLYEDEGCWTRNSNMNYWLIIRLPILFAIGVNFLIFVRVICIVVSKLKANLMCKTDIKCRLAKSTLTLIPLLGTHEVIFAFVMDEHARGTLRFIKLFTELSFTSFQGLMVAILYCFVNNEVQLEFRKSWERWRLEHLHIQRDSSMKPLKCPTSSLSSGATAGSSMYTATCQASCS
- Format: cell-based
- measurement-conditions: 10 nM test compound
Hi, when you answer, please include the unit after the number. Thanks!

Here is how some compounds turned out for Human GLP-1 R activity (cAMP release), % activity with respect to control.
CCc1cc(OC)ccc1-c1ccc(CC(NC(=O)[C@H](CC(=O)O)NC(=O)[C@H](CO)NC(=O)[C@@H](NC(=O)[C@H](Cc2ccccc2)NC(=O)[C@@H](NC(=O)CNC(=O)[C@H](CCC(N)=O)NC(=O)C(C)(C)NC(=O)[C@@H](N)Cc2c[nH]cn2)[C@@H](C)O)[C@@H](C)O)C(=O)NC(Cc2ccc(-c3ccccc3C)cc2)C(N)=O)cc1 (single isomer, unassigned); 92 ± 0.15%
CCc1cc(OC)ccc1-c1ccc(CC(NC(=O)[C@H](CC(=O)O)NC(=O)[C@H](CO)NC(=O)[C@@H](NC(=O)[C@H](Cc2ccccc2)NC(=O)[C@@H](NC(=O)CNC(=O)[C@H](CCC(N)=O)NC(=O)C(C)(C)NC(=O)[C@@H](N)Cc2c[nH]cn2)[C@@H](C)O)[C@@H](C)O)C(=O)NC(Cc2ccc(-c3ccccc3F)cc2)C(N)=O)cc1 (single isomer, unassigned); 97 ± 0.46%
CCc1cc(OC)ccc1-c1ccc(CC(NC(=O)[C@H](CC(=O)O)NC(=O)[C@H](CO)NC(=O)[C@@H](NC(=O)C(C)(Cc2ccccc2F)NC(=O)[C@@H](NC(=O)CNC(=O)[C@H](CCC(N)=O)NC(=O)C(C)(C)NC(=O)[C@@H](N)Cc2c[nH]cn2)[C@@H](C)O)[C@@H](C)O)C(=O)NC(Cc2ccc(-c3ccccc3C)nc2)C(N)=O)cc1 (single isomer, unassigned); 99 ± 0.09%

Now for a further compound.
// query Provide only the value of recorded Human GLP-1 R activity (cAMP release), % activity with respect to control for CCc1cc(OC)ccc1-c1ccc(CC(NC(=O)[C@H](CC(=O)O)NC(=O)[C@H](CO)NC(=O)[C@@H](NC(=O)[C@H](Cc2ccccc2)NC(=O)[C@@H](NC(=O)CNC(=O)[C@H](CCC(N)=O)NC(=O)C2(NC(=O)[C@@H](N)Cc3c[nH]cn3)CC2)[C@@H](C)O)[C@@H](C)O)C(=O)NC(Cc2ccc(-c3ccccc3C)cc2)C(N)=O)cc1 (single isomer, unassigned)
// result 99 ± 0.15%

----------
- protocol: Stability in human plasma
- Format: in vitro ADME
- measurement-conditions: 2 μM, 37° C.
measurement-type: half-life (t1/2) in human plasma

CCc1cc(OC)ccc1-c1ccc(CC(NC(=O)[C@H](CC(=O)O)NC(=O)[C@H](CO)NC(=O)[C@@H](NC(=O)[C@H](Cc2ccccc2)NC(=O)[C@@H](NC(=O)CNC(=O)[C@H](CCC(N)=O)NC(=O)[C@H](C)NC(=O)[C@@H](N)Cc2c[nH]cn2)[C@@H](C)O)[C@@H](C)O)C(=O)NC(Cc2ccc(-c3ccccc3C)nc2)C(N)=O)cc1 (single isomer, unassigned) [compound 10]; (9) h
CCc1cc(OC)ccc1-c1ccc(CC(NC(=O)[C@H](CC(=O)O)NC(=O)[C@H](CO)NC(=O)[C@@H](NC(=O)[C@H](Cc2ccccc2)NC(=O)[C@@H](NC(=O)CNC(=O)[C@H](CCC(N)=O)NC(=O)[C@H](C)NC(=O)[C@@H](N)Cc2c[nH]cn2)[C@@H](C)O)[C@@H](C)O)C(=O)NC(Cc2ccc(-c3ccccc3C(F)(F)F)cc2)C(N)=O)cc1 (single isomer, unassigned) [compound 12]; (9) h
CCc1cc(OC)ccc1-c1ccc(CC(NC(=O)[C@H](CC(=O)O)NC(=O)[C@H](CO)NC(=O)[C@@H](NC(=O)[C@H](Cc2ccccc2)NC(=O)[C@@H](NC(=O)CNC(=O)[C@H](CCC(N)=O)NC(=O)[C@H](CO)NC(=O)[C@@H](N)Cc2c[nH]cn2)[C@@H](C)O)[C@@H](C)O)C(=O)NC(Cc2ccc(-c3ccccc3F)cc2)C(N)=O)cc1 (single isomer, unassigned) [compound 7]; (9) h
